Numbers sourced from paper PMC13081163.

- Procedure text: Pharmacokinetics in male rats (LC-MS/MS)
- Format: in vivo
- Test parameters: SD, rat, plasma, po, 30 mg/kg, i.g.
Reported metric: Cmax (ng/mL)
Give bare numbers, in ng/mL.

Value lookup for Cmax; key = CC1(C)CCC2(C(=O)NO)CCC3(C)C(C(=O)C=C4C5(C)C=C(C#N)C(=O)C(C)(C)C5CCC43C)C2C1 (stereo not shown) [Cpd.51]
124

----------
- Procedure text: Plasma and brain levels after i.v. dosing (blood-brain barrier)
- Type: in vivo, rat
- Test parameters: male, SD, rat, brain, intravenous; 5 mg/kg, i.v., 1 h; read-out: Brain
Reported metric: concentration at 1 h (ng/g)
Give bare numbers, in ng/g.

I would be grateful if you could share the reported concentration at 1 h for CC1(C)CCC2(C(=O)NO)CCC3(C)C(C(=O)C=C4C5(C)C=C(C#N)C(=O)C(C)(C)C5CCC43C)C2C1 (stereo not shown) [Cpd.51] .
29.5

----------
- Procedure text: Plasma and brain levels after i.v. dosing (blood-brain barrier)
- Assay type: in vivo, rat
- Test parameters: male, SD, rat, brain, intravenous; 5 mg/kg, i.v., 4 h; read-out: Brain
Reported metric: concentration at 4 h (ng/g)
Numbers only, in ng/g.

Please give the measured concentration at 4 h for this compound: CC1(C)CCC2(C(=O)NO)CCC3(C)C(C(=O)C=C4C5(C)C=C(C#N)C(=O)C(C)(C)C5CCC43C)C2C1 (stereo not shown)
10.3

----------
- Test system: ARE-luciferase reporter (Nrf2 activation), Hek-293T cells
- Procedure text: ARE-luciferase reporter gene assay
- Assay type: cell-based
- Test parameters: Homo sapiens, HEK-293T; cells transfected with NC-OE control plasmid
Reported metric: EC50 (nM)
One number for each entry, in nM.

Data request, read-out EC50, for CC1(C)CCC2(C(=O)NO)CCC3(C)C(C(=O)C=C4C5(C)C=C(C#N)C(=O)C(C)(C)C5CCC43C)C2C1 (stereo not shown)
56.7

----------
- Procedure text: Pharmacokinetics in male rats (LC-MS/MS)
- Type: in vivo
- Test parameters: SD, rat, plasma, po, 30 mg/kg, i.g.
Reported metric: MRT last (h)
Numbers only, in h.

Fill in: MRT last of CC1(C)CCC2(C(=O)NO)CCC3(C)C(C(=O)C=C4C5(C)C=C(C#N)C(=O)C(C)(C)C5CCC43C)C2C1 (stereo not shown) is ___
5.17

----------
- Procedure text: Microsomal metabolic stability, human
- Type: in vitro ADME
- Test parameters: human, human liver microsomes, pH 7.4
Reported metric: half-life (min)
Numbers only, in min.

Look up half-life: CC1(C)CCC2(C(=O)NO)CCC3(C)C(C(=O)C=C4C5(C)C=C(C#N)C(=O)C(C)(C)C5CCC43C)C2C1 (stereo not shown)
36.7

----------
- Procedure text: Plasma and brain levels after i.v. dosing (blood-brain barrier)
- Type: in vivo, rat
- Test parameters: male, SD, rat, plasma, intravenous; 5 mg/kg, i.v., 0.25 h; read-out: Plasma
Reported metric: concentration at 0.25 h (ng/mL)
One number for each entry, in ng/mL.

What value of concentration at 0.25 h has been recorded for this entry: CC1(C)CCC2(C(=O)NO)CCC3(C)C(C(=O)C=C4C5(C)C=C(C#N)C(=O)C(C)(C)C5CCC43C)C2C1 (stereo not shown)
1290
